Assay System: T1, Anti-CD28 Fab (SEQ ID NOs: 696, 697)
T1 construct: In the phage ELISA the Fab was biotinylated and captured on neutravidin coated plates
T1 sequence (VH, as listed by the source, chain 1 of 2): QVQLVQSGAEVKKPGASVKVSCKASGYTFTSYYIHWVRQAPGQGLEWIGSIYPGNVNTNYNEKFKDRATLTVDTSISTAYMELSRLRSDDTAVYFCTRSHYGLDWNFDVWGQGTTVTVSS
T1 sequence (VL, as listed by the source, chain 2 of 2): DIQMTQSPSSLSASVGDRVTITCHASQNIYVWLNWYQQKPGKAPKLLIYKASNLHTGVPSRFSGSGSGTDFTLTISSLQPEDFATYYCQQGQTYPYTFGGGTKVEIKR
Experimental Protocol: phage binding ELISA; biotinylated anti-CD28 Fab on neutravidin plate, clonal phage supernatant, anti-M13 HRP detection
Where no end group is shown, it is not given here.
Parameter: Anti-CD28 Fab signal (phage binding ELISA)

// Anti-CD28 Fab signal (phage binding ELISA) lookup, key: YCAGHNAQYMSKCL (cysteine pairing not given here; also: displayed fused to phage pIII protein, fusion end and linker not given here, Clonal phage of the peptide-87 library, tested as crude supernatant; not shown: fused to the pIII filament protein of the bacteriophage) [Phage-995]
1.55

// Anti-CD28 Fab signal (phage binding ELISA) lookup, key: YCEGHTLEYMWKCL (cysteine pairing not given here; also: displayed fused to phage pIII protein, fusion end and linker not given here, Clonal phage of the peptide-87 library, tested as crude supernatant; not shown: fused to the pIII filament protein of the bacteriophage) [Phage-991]
1.55
